Data origin, for the record: ChEMBL document CHEMBL4152348

- test-description: Clearance in Sprague-Dawley rat at 1 mg/kg, iv or 5 mg/kg, po by HPLC/MS analysis
- Type: ADME, organism-based
- condition-parameters: in vivo
test-readout: clearance (mL/min/kg)
Write the value in mL/min/kg as a bare number.

IN: Consider the molecule CC(C)[C@@H]1OC(=O)C(C)(C)/C=C/c2ccc3ccc(nc3c2)[C@@H](C)NC(=O)[C@@H]2CCCN(N2)C(=O)[C@H](C)NC1=O and give its measured clearance.
OUT: 10.8

###

- test-description: Apparent permeability across basolateral to apical side in human Caco2 cells measured at 60 to 120 mins by LC/MS/MS analysis
- Assay type: ADME, cell-based
- condition-parameters: Caco-2, read-out: permeability
test-readout: Papp B→A (×10⁻⁶ cm/s)
Answer format: numeric, ×10⁻⁶ cm/s implied, no suffix.

IN: Please report the recorded Papp B→A for CC(C)[C@@H]1OC(=O)C2(/C=C/c3ccc4ccc(nc4c3)[C@@H](C)NC(=O)[C@@H]3CCCN(N3)C(=O)[C@H](C)NC1=O)COCOC2 .
OUT: 13

IN: Fill in the blank: the reported Papp B→A of CC(C)[C@@H]1OC(=O)C2(/C=C/c3ccc4ccc(nc4c3)[C@@H](C)NC(=O)[C@@H]3CCCN(N3)C(=O)[C@H](C)NC1=O)COCCOC2 is ____.
OUT: 10

IN: Entry CC(C)[C@@H]1OC(=O)C(CO)(CO)/C=C/c2ccc3ccc(nc3c2)[C@@H](C)NC(=O)[C@@H]2CCCN(N2)C(=O)[C@H](C)NC1=O has what Papp B→A?
OUT: 0.59

###

- test-description: Oral bioavailability in Beagle dog at 5 mg/kg by HPLC/MS analysis
- Type: ADME, organism-based, Canis lupus familiaris
- condition-parameters: in vivo
test-readout: bioavailability (%)
Give the value, in units of %, as a plain number.

IN: Requested read-out: bioavailability. Entry: CC(C)[C@@H]1NC(=O)C/C=C/c2cc3cc(ccc3cn2)[C@@H](C)OC(=O)[C@@H]2CCCN(N2)C(=O)[C@H](C)NC1=O
OUT: 8

IN: Recorded bioavailability for CC(C)[C@@H]1OC(=O)C2(/C=C/c3ccc4ccc(nc4c3)[C@@H](C)NC(=O)[C@@H]3CCCN(N3)C(=O)[C@H](C)NC1=O)COCOC2 , please?
OUT: 55

IN: Would you mind telling me what bioavailability value was observed for CC(C)[C@@H]1OC(=O)C(C)(C)/C=C/c2ccc3ccc(nc3c2)[C@@H](C)NC(=O)[C@@H]2CCCN(N2)C(=O)[C@H](C)NC1=O ?
OUT: 100

###

- test-description: Half life in dog plasma at 2 uM up to 4 hrs by LC/MS/MS analysis
- Format: ADME, cell-free, Canis lupus familiaris
test-readout: half-life at 2 µM

IN: Requested read-out: half-life at 2 µM. Entry: CC(C)[C@@H]1NC(=O)C(C)(C)/C=C/c2ccc3ccc(nc3c2)[C@@H](C)OC(=O)[C@@H]2CCCN(N2)C(=O)[C@H](C)NC1=O
OUT: > 1500 min

IN: // returns reported half-life at 2 µM for input CC(C)[C@@H]1NC(=O)C/C=C/c2ccc3ccc(nc3c2)[C@@H](C)OC(=O)[C@@H]2CCCN(N2)C(=O)[C@H](C)NC1=O
OUT: > 1500 min

IN: Requested read-out: half-life at 2 µM. Entry: CO[C@H]1C(=O)N[C@@H](C(C)C)C(=O)N[C@@H](C)C(=O)N2CCC[C@H](N2)C(=O)O[C@H](C)c2cccc(c2)/C=C/CC[C@H]1C
OUT: 600 min

IN: What measured half-life at 2 µM goes with CC(C)[C@@H]1NC(=O)C/C=C/c2ccc3ccc(cc3c2)[C@@H](C)OC(=O)[C@@H]2CCCN(N2)C(=O)[C@H](C)NC1=O ?
OUT: > 1500 min

IN: Give its half-life at 2 µM value. Item: CC(C)[C@@H]1NC(=O)CC/C=C/c2cc3cc(ccc3cn2)[C@@H](C)OC(=O)[C@@H]2CCCN(N2)C(=O)[C@H](C)NC1=O
OUT: > 1500 min
